molecular target: Cholinesterase (Equus caballus); assay: Inhibition of equine serum BChE using butyrylthiocholine iodide as substrate by Ellman's method
Sequence (P81908 whole entry): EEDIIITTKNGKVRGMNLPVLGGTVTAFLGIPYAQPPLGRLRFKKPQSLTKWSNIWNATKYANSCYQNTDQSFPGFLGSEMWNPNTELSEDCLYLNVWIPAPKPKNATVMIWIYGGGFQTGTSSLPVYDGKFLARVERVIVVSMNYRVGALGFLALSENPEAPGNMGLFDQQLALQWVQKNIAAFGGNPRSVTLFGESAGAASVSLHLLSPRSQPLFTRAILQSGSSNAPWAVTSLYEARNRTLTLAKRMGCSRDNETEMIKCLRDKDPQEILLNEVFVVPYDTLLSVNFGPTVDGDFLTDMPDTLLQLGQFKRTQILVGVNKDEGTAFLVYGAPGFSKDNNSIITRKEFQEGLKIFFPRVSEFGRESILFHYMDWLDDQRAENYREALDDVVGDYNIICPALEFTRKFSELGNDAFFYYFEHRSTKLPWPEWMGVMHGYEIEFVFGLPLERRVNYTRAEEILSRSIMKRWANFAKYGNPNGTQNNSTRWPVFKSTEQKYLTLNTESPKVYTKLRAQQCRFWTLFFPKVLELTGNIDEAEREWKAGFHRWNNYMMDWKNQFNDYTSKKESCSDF
quantity.measured: pIC50
Numbers only, as −log10 of the molar value.

Use these answered entries as a reference point.
| molecule | pIC50 |
| --- | --- |
| COc1ccc(C2=NN(C(C)=O)C(c3ccc(-n4cnc5ccccc54)cc3)C2)cc1OC (stereo not given) | 3.59 |
| COc1ccc(C2=NN(C(C)=O)C(c3ccc(N4CCC(Cc5ccccc5)CC4)cc3)C2)cc1OC (stereo not given) | 5.68 |

Can you give me pIC50 for all of these, one by one?
1. CCN1CCN(c2ccc(C3CC(c4ccc(OC)c(OC)c4)=NN3C(C)=O)cc2)CC1 (stereo not given)
2. CCN1CCN(c2ccc(C3CC(c4ccc(OC)cc4)=NN3C(C)=O)cc2)CC1 (stereo not given)
3. COc1ccc(C2=NN(C(C)=O)C(c3ccc(N4CCN(Cc5ccccc5)CC4)cc3)C2)cc1OC (stereo not given)

Solution:
1: 6.30; 2: 3.66; 3: 6.30

* * *

tested on: SH-SY5Y; assay: cells; format: functional; conditions: Homo sapiens
Description: Neuroprotective activity against H2O2-induced cytotoxicity in human SH-SY5Y cells assessed as cell viability at 10 uM preincubated for 3 hrs followed by H2O2 addition and measured after 24 hrs by MTT assay (Rvb = 75.2 +/- 4.6%)
Hi there, I'd appreciate the recorded viability at 10 µM for every entry that follows.
Answers are plain numbers, in %.

Use these answered entries as a reference point.
| compound | viability at 10 µM / % |
| --- | --- |
| COc1ccc(C2=NN(C(C)=O)C(c3ccc(N4CCC(C)CC4)cc3)C2)cc1OC (stereo unspecified) | 81.1 |
| COc1ccc(C2=NN(C(C)=O)C(c3ccc(N4CCN(C)CC4)cc3)C2)cc1OC (stereo unspecified) | 93.6 |
| CCN1CCN(c2ccc(C3CC(c4ccc(OC)c(OC)c4)=NN3C(C)=O)cc2)CC1 (stereo unspecified) | 87.4 |
| COc1cc2c(cc1OC)C(=O)C(CC1CCN(Cc3ccccc3)CC1)C2 (stereo unspecified) | 69 |
| COc1ccc(C2=NN(C(C)=O)C(c3ccc(N4CCN(Cc5ccccc5)CC4)cc3)C2)cc1OC (stereo unspecified) | 87 |

Note: attention shifts to another entry.
Problem: Supply measured viability at 10 µM of COc1ccc(C2=NN(C(C)=O)C(c3ccc(N4CCC(Cc5ccccc5)CC4)cc3)C2)cc1OC (stereo unspecified) in your reply.
Solution: 84.4

* * *

biological target: Amyloid-beta precursor protein (Homo sapiens) (UniProt P05067); experiment: Inhibition of human amyloid beta (1 to 42) self-induced aggregation assessed as Amyloid beta (1 to 42) aggregation at 100 uM incubated for 48 hrs by thioflavin T-based fluorescence assay (reference value: 100%); design: scale not given: the % may be the effect or the level left
Sequence (P05067 whole entry): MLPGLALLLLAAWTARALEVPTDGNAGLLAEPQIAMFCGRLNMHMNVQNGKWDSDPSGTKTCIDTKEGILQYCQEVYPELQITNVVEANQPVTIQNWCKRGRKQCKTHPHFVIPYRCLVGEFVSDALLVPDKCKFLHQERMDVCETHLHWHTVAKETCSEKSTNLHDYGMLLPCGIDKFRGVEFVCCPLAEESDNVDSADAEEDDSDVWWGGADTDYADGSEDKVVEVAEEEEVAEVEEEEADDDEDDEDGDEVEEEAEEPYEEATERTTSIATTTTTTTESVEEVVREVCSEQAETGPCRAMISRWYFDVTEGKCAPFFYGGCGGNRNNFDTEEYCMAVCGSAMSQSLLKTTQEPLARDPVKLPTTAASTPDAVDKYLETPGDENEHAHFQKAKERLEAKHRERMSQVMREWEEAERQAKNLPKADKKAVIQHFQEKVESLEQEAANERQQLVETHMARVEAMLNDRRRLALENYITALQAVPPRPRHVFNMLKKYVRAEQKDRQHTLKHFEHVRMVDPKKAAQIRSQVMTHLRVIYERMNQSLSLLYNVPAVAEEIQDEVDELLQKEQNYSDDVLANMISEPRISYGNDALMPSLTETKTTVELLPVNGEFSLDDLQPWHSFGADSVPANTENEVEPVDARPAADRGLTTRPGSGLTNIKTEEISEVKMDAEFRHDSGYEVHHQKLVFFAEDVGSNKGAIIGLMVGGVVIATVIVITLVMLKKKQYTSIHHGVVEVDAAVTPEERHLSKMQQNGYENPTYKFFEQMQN
Simple rule here: Activity less than 70% is true (1), otherwise false (0).

| molecule | discrete.label |
| --- | --- |
| CO[C@H]1/C=C/O[C@@]2(C)Oc3c(C)c(O)c4c(O)c(c(/C=N/N5CCN(C)CC5)c(O)c4c3C2=O)NC(=O)/C(C)=C\C=C\[C@H](C)[C@H](O)[C@@H](C)[C@@H](O)[C@@H](C)[C@H](OC(C)=O)[C@@H]1C | true (1) |
| COc1ccc(C2=NN(C(C)=O)C(c3ccc(N4CCC(C)CC4)cc3)C2)cc1OC (stereo unspecified) | true (1) |

Problem: Please indicate whether the reported Activity of COc1ccc(C2=NN(C(C)=O)C(c3ccc(N4CCN(Cc5ccccc5)CC4)cc3)C2)cc1OC (stereo unspecified) is strictly below 70%.
Solution: false (0)

Problem: Please indicate whether the reported Activity of CCN1CCN(c2ccc(C3CC(c4ccc(OC)c(OC)c4)=NN3C(C)=O)cc2)CC1 (stereo unspecified) is strictly below 70%.
Solution: false (0)

Problem: Please indicate whether the reported Activity of COc1ccc(C2=NN(C(C)=O)C(c3ccc(N4CCN(C)CC4)cc3)C2)cc1OC (stereo unspecified) is strictly below 70%.
Solution: false (0)

Problem: Please indicate whether the reported Activity of COc1ccc(C2=NN(C(C)=O)C(c3ccc(N4CCC(Cc5ccccc5)CC4)cc3)C2)cc1OC (stereo unspecified) is strictly below 70%.
Solution: false (0)
